Test system: Anaerococcus vaginalis
ASSAY DETAILS: Antimicrobial activity against Anaerococcus vaginalis under anaerobic conditions after 44 hrs by CLSI-M11-47 protocol based agar dilution method
Format: functional
REPORTED PROPERTY: MIC90 (mg/L)
Return type: number; implicit unit mg/L.

Data request: Give Anaerococcus vaginalis MIC90 for CCC[C@@H]1C[C@@H](C(=O)N[C@@H]([C@H]2O[C@H](SC)[C@H](O)[C@@H](O)[C@H]2O)[C@H](C)Cl)N(C)C1
Data returned: 64

---

Parameter: MIC90. Scope: all listed entries.
System: Peptoniphilus lacrimalis
ASSAY DETAILS: Antimicrobial activity against Peptoniphilus lacrimalis under anaerobic conditions after 44 hrs by CLSI-M11-47 protocol based agar dilution method
Assay type: functional
Return type: number; implicit unit µg/mL.

SMILES STRING	RECORDED NUMBER
Cc1ncc([N+](=O)[O-])n1CCO	4
CCC[C@@H]1C[C@@H](C(=O)N[C@@H]([C@H]2O[C@H](SC)[C@H](O)[C@@H](O)[C@H]2O)[C@H](C)Cl)N(C)C1	64
CCO/N=C(\C(=O)N[C@@H]1C(=O)N2C(C(=O)[O-])=C(Sc3nc(-c4cc[n+](C)cc4)cs3)CS[C@H]12)c1nsc(NP(=O)(O)O)n1	1

As a next step, examine the compound that follows.
Data request: Any idea what its MIC90 is? The compound is CO/N=C(\C(=O)N[C@@H]1C(=O)N2C(C(=O)O)=C(CSc3nc(=O)c(O)nn3C)CS[C@H]12)c1csc(N)n1
Data returned: 16

---

Parameter: MIC90. Scope: all listed entries.
Tested on: Anaerococcus tetradius
ASSAY DETAILS: Antimicrobial activity against Anaerococcus tetradius under anaerobic conditions after 44 hrs by CLSI-M11-47 protocol based agar dilution method
Assay type: functional
Return type: number; implicit unit µg/mL.

SMILES STRING	RECORDED NUMBER
Cc1ncc([N+](=O)[O-])n1CCO	2

Data request: Any idea what its MIC90 is? The compound is CO/N=C(\C(=O)N[C@@H]1C(=O)N2C(C(=O)O)=C(CSc3nc(=O)c(O)nn3C)CS[C@H]12)c1csc(N)n1
Data returned: 0.5

Data request: Any idea what its MIC90 is? The compound is CCO/N=C(\C(=O)N[C@@H]1C(=O)N2C(C(=O)[O-])=C(Sc3nc(-c4cc[n+](C)cc4)cs3)CS[C@H]12)c1nsc(NP(=O)(O)O)n1
Data returned: 0.125

Data request: Any idea what its MIC90 is? The compound is CCC[C@@H]1C[C@@H](C(=O)N[C@@H]([C@H]2O[C@H](SC)[C@H](O)[C@@H](O)[C@H]2O)[C@H](C)Cl)N(C)C1
Data returned: 128

---

System: Prevotella denticola
ASSAY DETAILS: Antimicrobial activity against Prevotella denticola under anaerobic conditions after 44 hrs by CLSI-M11-47 protocol based agar dilution method
Assay type: functional
REPORTED PROPERTY: MIC90 (µg/mL)
Return type: number; implicit unit µg/mL.

Sample records with MIC90:
SMILES STRING	REPORTED PROPERTY	UNIT STRING	RECORDED NUMBER
CO/N=C(\C(=O)N[C@@H]1C(=O)N2C(C(=O)O)=C(CSc3nc(=O)c(O)nn3C)CS[C@H]12)c1csc(N)n1	MIC90	µg/mL	8
CCC[C@@H]1C[C@@H](C(=O)N[C@@H]([C@H]2O[C@H](SC)[C@H](O)[C@@H](O)[C@H]2O)[C@H](C)Cl)N(C)C1	MIC90	µg/mL	128
CCO/N=C(\C(=O)N[C@@H]1C(=O)N2C(C(=O)[O-])=C(Sc3nc(-c4cc[n+](C)cc4)cs3)CS[C@H]12)c1nsc(NP(=O)(O)O)n1	MIC90	µg/mL	32

As a next step, examine the compound that follows.
Data request: Give Prevotella denticola MIC90 for Cc1ncc([N+](=O)[O-])n1CCO
Data returned: 2
